Each record here notes measured MIC.
# Tested on: E. coli DY-1
# Assay Comment: MIC by agar dilution, E. coli DY-1
# Type: cell-based
# Test Conditions: Escherichia coli, DY1, 17 h; E. coli DY-1; agar dilution, Mueller-Hinton agar; read-out: Minimal Inhibitory Concentration (MIC)

| Compound | Readout Qualifier | MIC / µg/mL |
| --- | --- | --- |
| CO/N=C(\C(=O)N[C@@H]1C(=O)N2C(C(=O)[O-])=C(C[n+]3ccn4c(SCCO)ccc4c3)CS[C@H]12)c1nsc(N)n1 | = | 0.025 |
| CON=C(C(=O)NC1C(=O)N2C(C(=O)[O-])=C(C[n+]3ccn4c(C#N)ccc4c3)CSC12)c1csc(N)n1 (stereo not shown) | = | 0.012 |
| CC(C)(ON=C(C(=O)NC1C(=O)N2C(C(=O)[O-])=C(C[n+]3ccn4cccc4c3)CSC12)c1csc(N)n1)C(=O)O (stereo not shown) | = | 0.05 |
| CO/N=C(\C(=O)N[C@@H]1C(=O)N2C(C(=O)[O-])=C(C[n+]3ccn4c(CO)ccc4c3C)CS[C@H]12)c1csc(N)n1 | = | 0.025 |
| CCON=C(C(=O)NC1C(=O)N2C(C(=O)[O-])=C(C[n+]3ccn4c(SCCO)ccc4c3)CSC12)c1csc(N)n1 (stereo not shown) | ≤ | 0.006 |
| CON=C(C(=O)NC1C(=O)N2C(C(=O)[O-])=C(C[n+]3ccn4c(CO)ccc4c3)CSC12)c1csc(N)n1 (stereo not shown) | ≤ | 0.006 |
| CO/N=C(\C(=O)N[C@@H]1C(=O)N2C(C(=O)[O-])=C(C[n+]3ccn4cccc4c3C)CS[C@H]12)c1nc(N)sc1Cl | = | 0.05 |

====

# Tested on: Ps. aeruginosa DY-2
# Assay Comment: MIC by agar dilution, Ps. aeruginosa DY-2
# Type: cell-based
# Test Conditions: Pseudomonas aeruginosa, DY2, 17 h; Ps. aeruginosa DY-2; agar dilution, Mueller-Hinton agar; read-out: Minimal Inhibitory Concentration (MIC)
Value Kind: MIC

| Molecule | System | Value Kind | Reported Measurement |
| --- | --- | --- | --- |
| CO/N=C(\C(=O)N[C@@H]1C(=O)N2C(C(=O)[O-])=C(C[n+]3ccn4cccc4c3)CS[C@H]12)c1nsc(N)n1 | Ps. aeruginosa DY-2 | MIC | 0.78 µg/mL |
| CO/N=C(\C(=O)N[C@@H]1C(=O)N2C(C(=O)[O-])=C(C[n+]3ccn4cccc4c3C)CS[C@H]12)c1nsc(N)n1 | Ps. aeruginosa DY-2 | MIC | 1.56 µg/mL |
| CON=C(C(=O)NC1C(=O)N2C(C(=O)[O-])=C(C[n+]3ccn4c(C(C)=O)ccc4c3)CSC12)c1csc(N)n1 (stereo not shown) | Ps. aeruginosa DY-2 | MIC | 6.25 µg/mL |
| CON=C(C(=O)NC1C(=O)N2C(C(=O)[O-])=C(C[n+]3ccn4c(C(N)=O)ccc4c3)CSC12)c1csc(N)n1 (stereo not shown) | Ps. aeruginosa DY-2 | MIC | 3.13 µg/mL |
| CC(C)(ON=C(C(=O)NC1C(=O)N2C(C(=O)[O-])=C(C[n+]3ccn4c(CO)ccc4c3)CSC12)c1csc(N)n1)C(=O)O (stereo not shown) | Ps. aeruginosa DY-2 | MIC | 25 µg/mL |
| CCON=C(C(=O)NC1C(=O)N2C(C(=O)[O-])=C(C[n+]3ccn4c(SCCN)ccc4c3)CSC12)c1csc(N)n1 (stereo not shown) | Ps. aeruginosa DY-2 | MIC | 3.13 µg/mL |
| CON=C(C(=O)NC1C(=O)N2C(C(=O)[O-])=C(C[n+]3ccn4c(Cl)ccc4c3)CSC12)c1csc(N)n1 (stereo not shown) | Ps. aeruginosa DY-2 | MIC | 3.13 µg/mL |
